System: human MDR1 P-gp
experiment: Efflux in MDCK cells transfected with the human MDR1 gene (MDCK-PGP permeability)
Format: in vitro ADME, canine
condition: dog, apical-to-basal apparent permeability (PEAB), pH 7.4, 37° C.
measured.parameter: Papp A→B (nm/s)
Number only, in nm/s; omit the unit.

Completed entries (count: 6):
I have this compound here, CCn1cc(-c2ccc(OCc3c(C)nnn3-c3ccc(C(F)F)cc3)nn2)cn1 , and I need its recorded Papp A→B.
177

I have this compound here, Cc1ncn(-c2ccc(OCc3c(C)nnn3-c3ccc(C(F)F)cc3)nn2)n1 , and I need its recorded Papp A→B.
522

I have this compound here, Cc1ncc(-c2ccc(OCc3c(C)nnn3-c3ccc(C(F)F)cc3)nn2)o1 , and I need its recorded Papp A→B.
678

I have this compound here, Cc1nnn(-c2ccc(C(F)F)cc2)c1COc1ccc(-n2cnc(C#N)c2)nn1 , and I need its recorded Papp A→B.
181

I have this compound here, Cc1nnn(-c2ccc(C(F)F)cc2)c1COc1ccc(-c2ccn[nH]2)nn1 , and I need its recorded Papp A→B.
224

I have this compound here, Cc1nnn(-c2ccc(C(F)F)cc2)c1COc1ccc(-n2cnc(C(F)F)c2)nn1 , and I need its recorded Papp A→B.
318

More entries:
I have this compound here, COC(=O)c1cn(-c2ccc(OCc3c(C)nnn3-c3ccc(C(F)F)cc3)nn2)cn1 , and I need its recorded Papp A→B.
188

I have this compound here, Cc1nnn(-c2ccc(C(F)F)cc2)c1COc1ccc(-c2cncnc2)nn1 , and I need its recorded Papp A→B.
496
